Target: PI3K alpha (Homo sapiens)
Construct: His tag (C); Tn5 (Trichoplusia ni) or TiniPro insect cells
Sequence (P42336 with tags, fused parts or gaps limits assumed): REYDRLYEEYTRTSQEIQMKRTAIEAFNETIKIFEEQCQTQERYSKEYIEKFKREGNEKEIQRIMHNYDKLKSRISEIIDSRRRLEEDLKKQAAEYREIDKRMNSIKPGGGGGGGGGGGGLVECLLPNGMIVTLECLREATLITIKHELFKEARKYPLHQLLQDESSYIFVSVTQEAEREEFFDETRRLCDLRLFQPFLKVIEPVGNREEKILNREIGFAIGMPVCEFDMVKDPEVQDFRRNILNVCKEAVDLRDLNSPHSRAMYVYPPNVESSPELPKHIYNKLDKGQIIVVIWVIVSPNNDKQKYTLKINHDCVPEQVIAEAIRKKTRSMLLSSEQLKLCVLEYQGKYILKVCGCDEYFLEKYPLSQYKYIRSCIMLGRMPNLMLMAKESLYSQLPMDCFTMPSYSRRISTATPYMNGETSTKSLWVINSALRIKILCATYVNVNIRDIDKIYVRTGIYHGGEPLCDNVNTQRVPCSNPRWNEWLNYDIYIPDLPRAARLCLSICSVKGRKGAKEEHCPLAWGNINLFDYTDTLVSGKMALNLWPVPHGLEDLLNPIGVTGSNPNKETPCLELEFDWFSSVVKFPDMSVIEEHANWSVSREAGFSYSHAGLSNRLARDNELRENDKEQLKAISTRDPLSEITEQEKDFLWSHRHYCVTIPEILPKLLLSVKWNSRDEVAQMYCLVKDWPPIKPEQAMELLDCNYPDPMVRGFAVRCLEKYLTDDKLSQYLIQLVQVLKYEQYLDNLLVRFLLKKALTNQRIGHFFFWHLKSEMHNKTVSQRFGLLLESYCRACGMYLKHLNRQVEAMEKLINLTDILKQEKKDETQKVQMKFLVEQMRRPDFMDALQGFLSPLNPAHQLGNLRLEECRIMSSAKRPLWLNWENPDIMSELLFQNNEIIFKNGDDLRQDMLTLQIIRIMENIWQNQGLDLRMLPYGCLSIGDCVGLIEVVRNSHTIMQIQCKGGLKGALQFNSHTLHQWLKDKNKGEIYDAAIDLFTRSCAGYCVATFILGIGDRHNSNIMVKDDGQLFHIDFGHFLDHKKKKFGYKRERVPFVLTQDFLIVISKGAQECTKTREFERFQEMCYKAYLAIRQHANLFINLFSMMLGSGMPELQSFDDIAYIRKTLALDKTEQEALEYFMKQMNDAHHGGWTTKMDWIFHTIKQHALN
Experiment: Enzymatic PI3K alpha isoform inhibition (lipid kinase activity, Kinase-Glo)
Conditions: enzymatic assay
pIC50: −log10 of the molar value.
pIC50 by entry:

- Molecule: "CCC(=O)N1CC[C@H](Oc2ccc3nccc(-c4cnc(S(C)(=O)=O)c(C)c4)c3c2)C1 [Example A25]"
  pIC50: 6.09
- Molecule: "COc1ncc(-c2ccnc3ccc(O[C@H]4CCN(C(=O)C5CCS(=O)(=O)CC5)C4)c(C)c23)cc1CF [Example B6]"
  pIC50: 6.53
- Molecule: "CC(=O)N1CC[C@@H](C(=O)N2CC[C@H](Oc3ccc4nccc(-c5cnc(S(C)(=O)=O)c(C)c5)c4c3)C2)C1 [Example A21]"
  pIC50: 6.09
